measurement_description: AUClast in dog at 10 mg/kg, po
Format: ADME, organism-based, Canis lupus familiaris
Set-up: route oral, time 0 - last, dose 10 mg/kg
setup_conditions: in vivo
endpoint_name: AUC(0-t)

compound: COc1nc(C2=NOC(C3CC3)C(c3ccc(Cl)cc3)N2)ccc1-n1cnc(C)c1 (stereo unspecified)
endpoint_name: AUC(0-t)
val: 32.9 µM·h

* * *

target_of_assay: Gamma-secretase
measurement_description: Modulation of gamma-secretase in human H4 cells expressing human wild type APP751 assessed as reduction in amyloid beta42 level incubated overnight by ELISA

compound: COc1nc(C2=NOCC(c3ccc(C(C)(C)C)cc3)N2)ccc1-n1cnc(C)c1 (stereo not given)
EC50, µM: 0.01

compound: COc1nc(C2=NOC[C@H](c3cc4ccccc4o3)N2)ccc1-n1cnc(C)c1
EC50, µM: 0.035

compound: COc1nc(C2=NOCC(c3ccc(Cl)c(C(F)(F)F)c3)N2)ccc1-n1cnc(C)c1 (stereo not given)
EC50, µM: 0.008

compound: COc1nc(C2=NOC(C)C(c3cccc(Cl)c3)N2)ccc1-n1cnc(C)c1 (stereo not given)
EC50, µM: 0.014

compound: COc1nc(C2=NOCC(c3cccc(Cl)c3)N2)ccc1-n1cnc(C)c1 (stereo not given)
EC50, µM: 0.026

compound: COc1nc(C2=NOCC(c3ccc(F)c(C(F)(F)F)c3)N2)ccc1-n1cnc(C)c1 (stereo not given)
EC50, µM: 0.019

compound: COc1nc(C2=NOCC(c3ccc(C)cc3)N2)ccc1-n1cnc(C)c1 (stereo not given)
EC50, µM: 0.074

compound: COc1nc(C2=NOC(C)(C)C(c3ccc(Cl)cc3)N2)ccc1-n1cnc(C)c1 (stereo not given)
EC50, µM: 0.023

compound: COc1nc(C2=NOCC(c3ccc(Cl)cc3)N2)ccc1-n1cnc(C)c1 (stereo not given)
EC50, µM: 0.037

compound: COc1nc(C2=NOC(C)C(c3ccc(Cl)cc3)N2)ccc1-n1cnc(C)c1 (stereo not given)
EC50, µM: 0.016

compound: COc1nc(C2=NOCC(c3ccc(C(F)(F)F)c(Cl)c3)N2)ccc1-n1cnc(C)c1 (stereo not given)
EC50, µM: 0.01

compound: COc1nc(C2=NOCC(c3ccc(Cl)c(C4CC4)c3)N2)ccc1-n1cnc(C)c1 (stereo not given)
EC50, µM: 0.013

compound: COc1nc(C2=NOCC(c3ccc(Cl)c(C)c3)N2)ccc1-n1cnc(C)c1 (stereo not given)
EC50, µM: 0.01

compound: COc1nc(C2=NOC(C)(C)C(c3ccccc3)N2)ccc1-n1cnc(C)c1 (stereo not given)
EC50, µM: 0.075

compound: COc1nc(C2=NOC(C)C(c3ccc(Cl)c(F)c3)N2)ccc1-n1cnc(C)c1 (stereo not given)
EC50, µM: 0.008

compound: COc1nc(C2=NOCC(c3ccc(C)c(Cl)c3)N2)ccc1-n1cnc(C)c1 (stereo not given)
EC50, µM: 0.014

compound: COc1nc(C2=NOCC(c3cc(Cl)cc(Cl)c3)N2)ccc1-n1cnc(C)c1 (stereo not given)
EC50, µM: 0.01

compound: COc1nc(C2=NOCC(c3ccc(Cl)c(F)c3)N2)ccc1-n1cnc(C)c1 (stereo not given)
EC50, µM: 0.023

compound: COc1nc(C2=NOCC(c3ccc(Cl)c(Cl)c3)N2)ccc1-n1cnc(C)c1 (stereo not given)
EC50, µM: 0.01

compound: COc1nc(C2=NOCC(c3ccccc3)N2)ccc1-n1cnc(C)c1 (stereo in doubt; 7a)
EC50, µM: 0.097
